target: T1, human GCGR (full-length glucagon receptor of 477 amino acids) (human, UniProt P47871 26-477)
T1 construct: Expressed from a full-length plasmid on CHO / CHO-K1 cells; also called hGCGR
T1 sequence (P47871 26-477 limits assumed): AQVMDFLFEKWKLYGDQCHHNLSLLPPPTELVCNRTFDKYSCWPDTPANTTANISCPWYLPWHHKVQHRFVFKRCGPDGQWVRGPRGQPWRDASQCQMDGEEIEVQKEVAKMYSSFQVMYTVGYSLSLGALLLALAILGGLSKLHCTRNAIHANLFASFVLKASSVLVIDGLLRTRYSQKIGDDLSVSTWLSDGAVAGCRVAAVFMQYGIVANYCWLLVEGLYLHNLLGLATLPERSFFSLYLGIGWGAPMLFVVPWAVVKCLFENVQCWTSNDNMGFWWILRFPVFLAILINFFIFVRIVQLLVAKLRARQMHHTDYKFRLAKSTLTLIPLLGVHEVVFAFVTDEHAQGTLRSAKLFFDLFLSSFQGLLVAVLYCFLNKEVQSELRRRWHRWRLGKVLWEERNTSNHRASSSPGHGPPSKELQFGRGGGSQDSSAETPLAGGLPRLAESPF
assay details: cell ELISA on fixed CHO cells overexpressing GCGR
reported property: pEC50
Here pEC50 is given on a logarithmic scale as minus log10 of the concentration in mol/L.

These recorded examples may help you get a feel for the data.
# binder, pEC50
data = [
    ("ch1817 (antibody, human IgG4 S228P, kappa, F234A L235A, V domains shown, IgG4-AA / kappa chimeric antibody) VH: EVQLVESGGDLVQPGRSMKLSCAASGFTFSNYYMAWVRQAPTKGLEWVASISTGGVNTYYRDSVKGRFTISRDNAKNNLYLQMDSLRSEETATYYCARHTTADYFYGIYFALDAWGQGTSVTVSS VL: QFTLTQPKSVSGSLRSTITIPCERSSGDIGDSYVNWYQQHLGRPPLNVIYADVQRPSEVSDRFSGSIDSSSNSASLTITNLQMDDEADYFCQSYDTNIDIIFGGGTKLTVLR", 9.72),
    ("ch1805 (antibody, human IgG4 S228P, kappa, F234A L235A, V domains shown, IgG4-AA / kappa chimeric antibody; also called chimeric antibody of clone 1805) VH: EVQLQQSGPELVKPGASVKIPCKTSGYTFTDYNMDWVKQSHGRSLEWIGSIDPDNGGTIYNQKFKGKATLTVDKSSSTAYMELRSLTSEDTAVYYCTRDYYGSSSWFAYWGQGTLVTVSA VL: DVVMTQSPATLSVTPGDRVSLSCRASQSISDYLHWYQQKSHESPRLLIKYASQSISGIPSRFSGSGSGSDFTLSINSVEPEDVGVYYCQNGHSFPYTFGGGTKLEIKR", 9.53),
    ("ch1810 (antibody, human IgG4 S228P, kappa, F234A L235A, V domains shown) VH: QVQLQQSGTELARPGTSVTLSCKASGYTFTNYAISWVKQRTGQGLEWIGEIYPTSGNTYYNEKFKGKATLTADRSSKTMYMELRSLTSVDSAVYFCASGVITTVVSTDYFDYWGQGSPLTVSS VL: DIQMTQIPSSLSVSLGDRVTISCRASLDISNYLNWYQLKPDGTVKLLIYYTSTLHSGVSSRFSGSGSGTEYSLTISNLEQEDIATYFCQQGNMVPYTFGGGTKLEIKR", 9.93),
]

Ask: Would you kindly share the measured pEC50 for ch1808 (antibody, human IgG4 S228P, kappa, F234A L235A, V domains shown, IgG4-AA / kappa chimeric antibody) VH: QVQLQQSGAELARPGASVKLSCKASGDTFTTNGISWVKQRIGQGLEWIGEIYPRSGNTYYNENFKGKATLTADKSSTTAYMELRRLTSEDSAVYFCARSITSVIGADYFDYWGQGTTLTVSS VL: DIQMTQTTSSLSASLGDRVTISCRASQDISNYLNWYQKKPDGTVKLLIYYSSTLHSGVPSRFSGSGSGTDYSLTISNLEQEDIATYFCQQGNTFPWTFGGGTKLEIKR ?
Result: 9.17

Ask: Check ch1822 (antibody, human IgG4 S228P, kappa, F234A L235A, V domains shown, IgG4-AA / kappa chimeric antibody) VH: EVRLVESGGDFVQPGRSVKLSCAASGFTFSNYYMAWVRQAPTKGLEWVGSISTGGVNTYYRDSVKGRFTISRDNAESTLYLQMDSLRSEETATYYCARHTTPDYHYGIYFAMDAWGQGTSVTVSS VL: QVTLTQPKSVSGSLRSTITIPCERSSGDIGESYVNWYQQHLGRPPINVIYADDQRPSEVSDRFSGSIDSSSNSASLTITNLQVDDEADYFCQSYDSSIDIFFGGGTKLTVLR too.
Result: 9.42

Ask: Cool, now ch1803 (antibody, human IgG4 S228P, kappa, F234A L235A, V domains shown, IgG4-AA / kappa chimeric antibody) VH: QFQLHQSGAELVKPGASVKLSCKATGYTFTDYWIEWVKQRPGHGLEWIGEILPGSTYTNYNEKFKGRATFTAEPSSSSAYMQLSGLTTEDSAIYYCSRGLSTLMAVDYFDYWGQGTTLTVSS VL: DIQMTQTTSSLSASLGDRVTINCRASQDISNYLNWYQQKPDGTVKLLIYYSSTLHSGVPSRFSGSGSGTDYSLTISHLEQEDIATYFCQQTNIFPWTFGGGTKLEIRT
Result: 9.93
